Target: HDAC9 enzyme (Homo sapiens)
Construct: transducing full length HDAC9 gene into Sf-9 insect cells; made in house; host or cells: Sf-9 insect cells
Sequence (Q9UKV0 whole entry, species assumed): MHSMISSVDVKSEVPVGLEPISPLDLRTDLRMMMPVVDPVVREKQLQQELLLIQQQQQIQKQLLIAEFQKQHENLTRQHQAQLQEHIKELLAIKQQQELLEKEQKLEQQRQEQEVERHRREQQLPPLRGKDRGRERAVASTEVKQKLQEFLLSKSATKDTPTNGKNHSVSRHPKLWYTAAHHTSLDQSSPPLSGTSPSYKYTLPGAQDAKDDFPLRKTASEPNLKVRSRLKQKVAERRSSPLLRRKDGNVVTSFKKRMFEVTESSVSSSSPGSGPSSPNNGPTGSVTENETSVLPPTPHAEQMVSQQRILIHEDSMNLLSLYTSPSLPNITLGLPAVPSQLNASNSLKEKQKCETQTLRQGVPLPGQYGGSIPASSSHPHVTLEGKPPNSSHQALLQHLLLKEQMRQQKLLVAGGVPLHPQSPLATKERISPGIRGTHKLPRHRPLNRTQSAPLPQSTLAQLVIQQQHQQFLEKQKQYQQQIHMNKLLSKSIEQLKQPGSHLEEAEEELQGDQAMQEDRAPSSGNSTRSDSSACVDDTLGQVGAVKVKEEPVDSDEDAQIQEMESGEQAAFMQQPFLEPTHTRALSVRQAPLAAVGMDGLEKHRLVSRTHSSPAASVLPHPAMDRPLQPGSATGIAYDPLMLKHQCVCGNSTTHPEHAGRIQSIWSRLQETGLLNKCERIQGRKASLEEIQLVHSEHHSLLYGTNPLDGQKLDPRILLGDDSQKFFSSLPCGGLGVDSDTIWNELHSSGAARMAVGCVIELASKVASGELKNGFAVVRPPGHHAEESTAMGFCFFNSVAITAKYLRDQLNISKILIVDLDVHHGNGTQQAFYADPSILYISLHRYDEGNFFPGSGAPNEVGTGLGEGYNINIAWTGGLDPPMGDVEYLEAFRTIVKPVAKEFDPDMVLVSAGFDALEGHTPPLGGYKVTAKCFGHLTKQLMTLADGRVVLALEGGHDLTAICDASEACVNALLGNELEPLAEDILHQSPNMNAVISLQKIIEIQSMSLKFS
Experiment: HDAC9 Enzyme Inhibitory Assay (HDAC-Glo class IIa)
Type: biochemical
Conditions: 1 μM test compound; wells without enzyme = 100% inhibition; read-out: HDAC9 inhibitory rate (%) (1 μM)
Readout Label: inhibition at 1 µM (%)

[[record]]
compound = "CC(=O)N1CC[C@H](N2Cc3ccc(-c4noc(C(F)(F)F)n4)cc3C2=O)[C@H](c2ccccc2)C1"
scale_unit = "%"
measured_number = 80

[[record]]
compound = "CC(CO)(CCl)C(=O)N[C@@H]1CCCC[C@H]1N1Cc2ccc(-c3noc(C(F)(F)F)n3)cc2C1=O (relative stereo)"
scale_unit = "%"
measured_number = 69

[[record]]
compound = "O=C1c2cc(-c3noc(C(F)(F)F)n3)ccc2CN1[C@@H]1CCNC[C@H]1c1ccc(Cl)c(F)c1 (relative stereo)"
scale_unit = "%"
measured_number = 99

[[record]]
compound = "O=C(CC1(O)CCCC1)N[C@@H]1CCCC[C@H]1N1Cc2ccc(-c3noc(C(F)(F)F)n3)cc2C1=O"
scale_unit = "%"
measured_number = 44

[[record]]
compound = "O=C(N[C@@H]1CCCC[C@H]1N1Cc2ccc(-c3noc(C(F)(F)F)n3)cc2C1=O)c1ccncn1"
scale_unit = "%"
measured_number = 64


(a) O=C(N[C@@H]1CCCC[C@H]1N1Cc2ccc(-c3noc(C(F)(F)F)n3)cc2C1=O)C1CCOC1 (some centres unmarked)
(b) O=C(Cc1ccc(F)cc1)N1CC(N2Cc3ncc(-c4noc(C(F)(F)F)n4)cc3C2=O)C1
Task: Hi! Which is lower in terms of inhibition at 1 µM, the first one a or the second one b ? Please respond with the label that marks your chosen entry.
Result: a

(1) O=C(N[C@@H]1CCCC[C@H]1N1Cc2ccc(-c3noc(C(F)(F)F)n3)cc2C1=O)C1CC1(F)F (some centres unmarked)
(2) CC(=O)N1CCC(N2Cc3ncc(-c4noc(C(F)(F)F)n4)cc3C2=O)C1 (centres unmarked)
Task: Which record shows the lower inhibition at 1 µM: the first, 1 , or the second, 2 ? Select an item and report its label.
Result: 1
